Origin of the recorded values: patent US20020150536

Biological target: integrin alphaV beta3 (Homo sapiens, UniProt P06756;P06756;P05106 P06756:31-889,P06756:891-1048,P05106:27-788)
Sequence (P06756 31-889, chain 1 of 3): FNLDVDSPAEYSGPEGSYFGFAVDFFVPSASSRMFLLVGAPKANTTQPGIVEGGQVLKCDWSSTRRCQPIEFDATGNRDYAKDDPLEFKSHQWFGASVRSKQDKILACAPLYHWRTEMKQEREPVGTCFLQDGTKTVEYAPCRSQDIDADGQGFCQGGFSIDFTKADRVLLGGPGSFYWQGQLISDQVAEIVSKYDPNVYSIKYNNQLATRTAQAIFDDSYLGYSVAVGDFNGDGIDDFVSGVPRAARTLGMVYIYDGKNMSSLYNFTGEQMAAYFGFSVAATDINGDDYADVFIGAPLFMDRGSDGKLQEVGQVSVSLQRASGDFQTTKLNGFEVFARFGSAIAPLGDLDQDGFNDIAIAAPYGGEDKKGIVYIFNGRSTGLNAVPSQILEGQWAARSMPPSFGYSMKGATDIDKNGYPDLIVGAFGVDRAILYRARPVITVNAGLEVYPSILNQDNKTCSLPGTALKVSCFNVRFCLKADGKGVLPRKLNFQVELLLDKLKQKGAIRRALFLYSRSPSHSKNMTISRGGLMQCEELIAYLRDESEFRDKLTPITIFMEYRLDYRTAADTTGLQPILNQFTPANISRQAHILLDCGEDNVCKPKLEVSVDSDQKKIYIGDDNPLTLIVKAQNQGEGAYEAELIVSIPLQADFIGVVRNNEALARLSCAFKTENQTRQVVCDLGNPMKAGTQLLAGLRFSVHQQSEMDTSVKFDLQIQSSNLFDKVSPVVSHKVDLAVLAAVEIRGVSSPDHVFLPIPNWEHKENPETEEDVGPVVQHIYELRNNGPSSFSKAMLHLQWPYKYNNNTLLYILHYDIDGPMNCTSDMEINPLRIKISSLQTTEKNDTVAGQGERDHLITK
Sequence (P06756 891-1048, chain 2 of 3): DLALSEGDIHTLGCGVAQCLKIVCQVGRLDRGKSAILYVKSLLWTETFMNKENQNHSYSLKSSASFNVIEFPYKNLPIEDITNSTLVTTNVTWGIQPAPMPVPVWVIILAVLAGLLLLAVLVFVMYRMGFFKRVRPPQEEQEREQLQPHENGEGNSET
Sequence (P05106 27-788, chain 3 of 3): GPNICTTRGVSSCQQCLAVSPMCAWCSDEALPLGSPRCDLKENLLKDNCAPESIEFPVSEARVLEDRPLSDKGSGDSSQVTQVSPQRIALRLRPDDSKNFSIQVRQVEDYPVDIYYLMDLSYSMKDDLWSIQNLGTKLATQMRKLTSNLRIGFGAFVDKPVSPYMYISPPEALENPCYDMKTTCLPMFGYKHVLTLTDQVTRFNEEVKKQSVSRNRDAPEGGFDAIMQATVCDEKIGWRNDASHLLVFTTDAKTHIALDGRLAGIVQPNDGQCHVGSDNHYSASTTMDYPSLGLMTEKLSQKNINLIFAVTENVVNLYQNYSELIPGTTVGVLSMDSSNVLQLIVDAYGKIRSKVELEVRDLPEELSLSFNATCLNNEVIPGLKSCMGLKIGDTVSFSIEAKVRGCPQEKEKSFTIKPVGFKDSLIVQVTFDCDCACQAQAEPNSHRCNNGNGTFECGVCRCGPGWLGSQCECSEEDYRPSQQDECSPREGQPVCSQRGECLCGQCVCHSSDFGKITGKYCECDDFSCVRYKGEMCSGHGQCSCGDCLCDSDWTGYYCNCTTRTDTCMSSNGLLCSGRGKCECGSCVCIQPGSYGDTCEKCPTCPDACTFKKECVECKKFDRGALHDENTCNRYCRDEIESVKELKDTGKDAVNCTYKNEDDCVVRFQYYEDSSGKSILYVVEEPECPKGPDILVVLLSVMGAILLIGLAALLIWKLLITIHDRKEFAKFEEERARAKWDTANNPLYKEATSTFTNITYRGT
Assay: microtiter plate, streptavidin-AP; Mg2+, Ca2+, Mn2+, pH 7.5, 37 C
Settings: label: 5'-biotin
Measured Property: pKd
// returns pKd (minus log10 of molar concentration), number only

- Binder: "15.21 (ssRNA, 2'-F C and U) RNA: GGGAGACAAGAAUAAACGCUCAACGGUGAAGACCUCUAUUAACAACAUGACCUGCCUGCGUUGUUCGACAGGAGGCUCACAACAGGC"
  Measured Property: "pKd"
  Data Value: 6.70
- Binder: "15.34 (ssRNA, 2'-F C and U) RNA: GGGAGACAAGAAUAAACGCUCAAUCCCACCCUGCCUUGUCUGUUUGAUAGAGACACUGUCCUUUUCGACAGGAGGCUCACAACAGGC"
  Measured Property: "pKd"
  Data Value: 6.72
- Binder: "15.43 (ssRNA, 2'-F C and U) RNA: GGGAGACAAGAAUAAACGCUCAACGCCGUUAUCACGACGUGCGUUCUGGGCGGUACUCGCGCAUUCGACAGGAGGCUCACAACAGGC"
  Measured Property: "pKd"
  Data Value: 7.35

Incoming: Look at this binder and give its reported pKd. 17.1 (ssRNA, 2'-F C and U) RNA: GGGAGACAAGAAUAAACGCUCAAUUCAACGCUGUCAAAGGGCUUAUAUAAGCGGAUUACCCUUCGACAGGAGGCUCACAACAGGC
Outgoing: 6.42

Incoming: Look at this binder and give its reported pKd. 15.5 (ssRNA, 2'-F C and U) RNA: GGGAGACAAGAAUAAACGCUCAAGCAUUCAAAAUUUGCGAGAACGAAUAGAAGUCCGAGAGCCUUCGACAGGAGGCUCACAACAGGC
Outgoing: 5.40

Incoming: Look at this binder and give its reported pKd. 15.46 (17.20) (ssRNA, 2'-F C and U) RNA: GGGAGACAAGAAUAAACGCUCAAUUCGACGCUGUGAAGGGCUUAUAUGAGCGGAUUACCCUUCGACAGGAGGCUCACAACAGGC
Outgoing: 7.40

Incoming: Look at this binder and give its reported pKd. 17.13 (ssRNA, 2'-F C and U) RNA: GGGAGACAAGAAUAAACGCUCAAUUCAACGCUGUCCAAGGGCUUAUAUGGGCGGAUUACCCUUCGACAGGAGGCUCACAACAGGC
Outgoing: 8.00

Incoming: Look at this binder and give its reported pKd. 7.54 (ssRNA, 2'-F C and U) RNA: GGGAGACAAGAAUAAACGCUCAAUUCGACGCUGUUCAAGGGCUUAUAUGAGCGCGUUAUACCCUUCGACAGGAGGCUCACAACAGGC
Outgoing: 6.64
